From: paper PMC3430621

Experiment: Pharmacokinetics in conscious freely moving rats after oral administration of BYHWT extract (HPLC-MS/MS of plasma)
Assay type: in vivo, Sprague-Dawley rats
Settings: male, Sprague-Dawley, in vivo, po; rat plasma, BYHWT extract 10 g/kg p.o., n = 6; read-out: Cmax
Endpoint name: Cmax (ng/mL)
Please respond with the number in ng/mL and leave the unit unwritten.

get_value(item= CC(C)(O)[C@@H]1CC[C@](C)([C@H]2[C@@H](O)C[C@@]3(C)[C@@H]4C[C@H](O[C@@H]5O[C@H](CO)[C@@H](O)[C@H](O)[C@H]5O)[C@H]5C(C)(C)[C@@H](O[C@@H]6OC[C@@H](O)[C@H](O)[C@H]6O)CC[C@@]56C[C@@]46CC[C@]23C)O1 [Astragaloside IV, astragaloside IV] , readout=Cmax) returns 100

* * *

Examples of compounds with documented Stability (%) Autosampler stability follow.
Assay: Stability of the analytes in rat plasma samples (freeze-thaw, short-term, long-term, autosampler)
Assay type: in vitro ADME
Conditions: concentration 1 (µg/mL), autosampler 8°C 12 h, n = 3
Please respond with the number in % and leave the unit unwritten.

COc1ccc(-c2coc3cc(O[C@@H]4O[C@H](CO)[C@@H](O)[C@H](O)[C@H]4O)ccc3c2=O)cc1 = 4.7

get_value(item= CCC/C=C1\OC(=O)C2=C1CCC=C2 [Ligustilide, ligustilide] , readout=Stability (%) Autosampler stability) returns 2.0

get_value(item= CC(=O)O[C@H]1[C@H](O[C@H]2CC[C@]34C[C@]35CC[C@]3(C)[C@@H]([C@@]6(C)CC[C@@H](C(C)(C)O)O6)[C@@H](O)C[C@@]3(C)[C@@H]5C[C@H](O[C@@H]3O[C@H](CO)[C@@H](O)[C@H](O)[C@H]3O)[C@H]4C2(C)C)OC[C@@H](O)[C@@H]1O [Astragaloside II, astragaloside II] , readout=Stability (%) Autosampler stability) returns 13

get_value(item= COc1ccc(-c2coc3cc(O[C@@H]4O[C@H](CO)[C@@H](O)[C@H](O)[C@H]4O)ccc3c2=O)cc1O [Calycosin-7-O-β-D-glucoside, calycosin-7-O-β-D-glucoside] , readout=Stability (%) Autosampler stability) returns −8.4

get_value(item= CC(C)(O)[C@@H]1CC[C@](C)([C@H]2[C@@H](O)C[C@@]3(C)[C@@H]4C[C@H](O[C@@H]5O[C@H](CO)[C@@H](O)[C@H](O)[C@H]5O)[C@H]5C(C)(C)[C@@H](O[C@@H]6OC[C@@H](O)[C@H](O)[C@H]6O)CC[C@@]56C[C@@]46CC[C@]23C)O1 [Astragaloside IV, astragaloside IV] , readout=Stability (%) Autosampler stability) returns 3.8

get_value(item= CC(=O)OC1C(O)COC(OC2CCC34CC35CCC3(C)C(C6(C)CCC(C(C)(C)O)O6)C(O)CC3(C)C5CC(OC3OC(CO)C(O)C(O)C3O)C4C2(C)C)C1OC(C)=O (stereo not drawn) [Astragaloside I, astragaloside I] , readout=Stability (%) Autosampler stability) returns −5.3

* * *

Experiment: Stability of the analytes in rat plasma samples (freeze-thaw, short-term, long-term, autosampler)
Type: in vitro ADME
Settings: concentration 1 (µg/mL), three freeze-thaw cycles, n = 3
Endpoint name: Stability (%) Freeze-thaw stability
Please respond with the number in % and leave the unit unwritten.

Before answering, review these 3 worked examples.
COc1ccc(-c2coc3cc(O[C@@H]4O[C@H](CO)[C@@H](O)[C@H](O)[C@H]4O)ccc3c2=O)cc1O [Calycosin-7-O-β-D-glucoside, calycosin-7-O-β-D-glucoside] = 5.8
CC(C)(O)[C@@H]1CC[C@](C)([C@H]2[C@@H](O)C[C@@]3(C)[C@@H]4C[C@H](O[C@@H]5O[C@H](CO)[C@@H](O)[C@H](O)[C@H]5O)[C@H]5C(C)(C)[C@@H](O[C@@H]6OC[C@@H](O)[C@H](O)[C@H]6O)CC[C@@]56C[C@@]46CC[C@]23C)O1 [Astragaloside IV, astragaloside IV] = −3.2
CC(=O)OC1C(O)COC(OC2CCC34CC35CCC3(C)C(C6(C)CCC(C(C)(C)O)O6)C(O)CC3(C)C5CC(OC3OC(CO)C(O)C(O)C3O)C4C2(C)C)C1OC(C)=O (stereo not drawn) [Astragaloside I, astragaloside I] = 4.6

get_value(item= CC(=O)O[C@H]1[C@H](O[C@H]2CC[C@]34C[C@]35CC[C@]3(C)[C@@H]([C@@]6(C)CC[C@@H](C(C)(C)O)O6)[C@@H](O)C[C@@]3(C)[C@@H]5C[C@H](O[C@@H]3O[C@H](CO)[C@@H](O)[C@H](O)[C@H]3O)[C@H]4C2(C)C)OC[C@@H](O)[C@@H]1O [Astragaloside II, astragaloside II] , readout=Stability (%) Freeze-thaw stability) returns 4.4

get_value(item= "COc1ccc(-c2coc3cc(O[C@@H]4O[C@H](CO)[C@@H](O)[C@H](O)[C@H]4O)ccc3c2=O)cc1" , readout=Stability (%) Freeze-thaw stability) returns 3.9

get_value(item= CCC/C=C1\OC(=O)C2=C1CCC=C2 [Ligustilide, ligustilide] , readout=Stability (%) Freeze-thaw stability) returns 8.7

* * *

Test: Stability of the analytes in rat plasma samples (freeze-thaw, short-term, long-term, autosampler)
Assay type: in vitro ADME
Details: concentration 10 (µg/mL), −20°C 14 days, n = 3
Examples of molecules with documented Stability (%) Long-term stability follow.
Please respond with the number in % and leave the unit unwritten.

Before answering, review these 5 worked examples.
COc1ccc(-c2coc3cc(O)ccc3c2=O)cc1 = −13
CCC/C=C1\OC(=O)C2=C1CCC=C2 [Ligustilide, ligustilide] = 5.0
CC(=O)OC1C(O)COC(OC2CCC34CC35CCC3(C)C(C6(C)CCC(C(C)(C)O)O6)C(O)CC3(C)C5CC(OC3OC(CO)C(O)C(O)C3O)C4C2(C)C)C1OC(C)=O (stereo not drawn) [Astragaloside I, astragaloside I] = −8.3
CC(=O)O[C@H]1[C@H](O[C@H]2CC[C@]34C[C@]35CC[C@]3(C)[C@@H]([C@@]6(C)CC[C@@H](C(C)(C)O)O6)[C@@H](O)C[C@@]3(C)[C@@H]5C[C@H](O[C@@H]3O[C@H](CO)[C@@H](O)[C@H](O)[C@H]3O)[C@H]4C2(C)C)OC[C@@H](O)[C@@H]1O [Astragaloside II, astragaloside II] = −0.8
CC(C)(O)[C@@H]1CC[C@](C)([C@H]2[C@@H](O)C[C@@]3(C)[C@@H]4C[C@H](O[C@@H]5O[C@H](CO)[C@@H](O)[C@H](O)[C@H]5O)[C@H]5C(C)(C)[C@@H](O[C@@H]6OC[C@@H](O)[C@H](O)[C@H]6O)CC[C@@]56C[C@@]46CC[C@]23C)O1 [Astragaloside IV, astragaloside IV] = −6.3

get_value(item= "C[C@@]12C[C@@]3(O)O[C@@H](O1)[C@]1(COC(=O)c4ccccc4)[C@H]3C[C@@]12O[C@@H]1O[C@H](CO)[C@@H](O)[C@H](O)[C@H]1O" , readout=Stability (%) Long-term stability) returns 21

get_value(item= "COc1ccc(-c2coc3cc(O[C@@H]4O[C@H](CO)[C@@H](O)[C@H](O)[C@H]4O)ccc3c2=O)cc1" , readout=Stability (%) Long-term stability) returns −6.2

get_value(item= "COc1ccc(-c2coc3cc(O)ccc3c2=O)cc1O" , readout=Stability (%) Long-term stability) returns 2.5

get_value(item= COc1ccc(-c2coc3cc(O[C@@H]4O[C@H](CO)[C@@H](O)[C@H](O)[C@H]4O)ccc3c2=O)cc1O [Calycosin-7-O-β-D-glucoside, calycosin-7-O-β-D-glucoside] , readout=Stability (%) Long-term stability) returns 23

* * *

Experiment: Stability of the analytes in rat plasma samples (freeze-thaw, short-term, long-term, autosampler)
Type: in vitro ADME
Details: concentration 100 (µg/mL), −20°C 14 days, n = 3
Endpoint name: Stability (%) Long-term stability

Before answering, review these 6 worked examples.
CC(=O)O[C@H]1[C@H](O[C@H]2CC[C@]34C[C@]35CC[C@]3(C)[C@@H]([C@@]6(C)CC[C@@H](C(C)(C)O)O6)[C@@H](O)C[C@@]3(C)[C@@H]5C[C@H](O[C@@H]3O[C@H](CO)[C@@H](O)[C@H](O)[C@H]3O)[C@H]4C2(C)C)OC[C@@H](O)[C@@H]1O [Astragaloside II, astragaloside II] = 1.7±21%
CC(C)(O)[C@@H]1CC[C@](C)([C@H]2[C@@H](O)C[C@@]3(C)[C@@H]4C[C@H](O[C@@H]5O[C@H](CO)[C@@H](O)[C@H](O)[C@H]5O)[C@H]5C(C)(C)[C@@H](O[C@@H]6OC[C@@H](O)[C@H](O)[C@H]6O)CC[C@@]56C[C@@]46CC[C@]23C)O1 [Astragaloside IV, astragaloside IV] = 2.1±13.5%
COc1ccc(-c2coc3cc(O)ccc3c2=O)cc1 = −12±7.5%
COc1ccc(-c2coc3cc(O[C@@H]4O[C@H](CO)[C@@H](O)[C@H](O)[C@H]4O)ccc3c2=O)cc1O [Calycosin-7-O-β-D-glucoside, calycosin-7-O-β-D-glucoside] = 20±12%
CCC/C=C1\OC(=O)C2=C1CCC=C2 [Ligustilide, ligustilide] = 23±12%
COc1ccc(-c2coc3cc(O)ccc3c2=O)cc1O = 17±5.2%

get_value(item= "COc1ccc(-c2coc3cc(O[C@@H]4O[C@H](CO)[C@@H](O)[C@H](O)[C@H]4O)ccc3c2=O)cc1" , readout=Stability (%) Long-term stability) returns 3.2±3.9%

get_value(item= "C[C@@]12C[C@@]3(O)O[C@@H](O1)[C@]1(COC(=O)c4ccccc4)[C@H]3C[C@@]12O[C@@H]1O[C@H](CO)[C@@H](O)[C@H](O)[C@H]1O" , readout=Stability (%) Long-term stability) returns 10±7.3%

get_value(item= CC(=O)OC1C(O)COC(OC2CCC34CC35CCC3(C)C(C6(C)CCC(C(C)(C)O)O6)C(O)CC3(C)C5CC(OC3OC(CO)C(O)C(O)C3O)C4C2(C)C)C1OC(C)=O (stereo not drawn) [Astragaloside I, astragaloside I] , readout=Stability (%) Long-term stability) returns −27±12%
